Provenance of the data: patent US5536732A

# Lookup of reported ED50 (concentration required to lower the syncytia counts by 50%) keyed by entry
# System: HIV-1GB8
# assay-info: Inhibition of syncytia formation in JM cells infected with HIV-1GB8 (3 days incubation, 37° C.)
# Assay type: cell-based
# Design: unit not given here
# test-parameters: HIV-1GB8, 3 days at 37° C.
reported-property: ED50 (concentration required to lower the syncytia counts by 50%)

molecule="C[Si](C)(CCCCN1C[C@H](O)[C@@H](O)[C@H](O)[C@H]1CO)c1ccccc1 [Example 53]" result_comparator== readout_value=12
molecule="C[Si](C)(C)c1cccc(CN2C[C@H](O)[C@@H](O)[C@H](O)[C@H]2CO)c1 [Example 43]" result_comparator=> readout_value=250
molecule="C[Si](C)(C)CCCCCCN1C[C@H](O)[C@@H](O)[C@H](O)[C@H]1CO [Example 52]" result_comparator== readout_value=33
molecule="C[Si](C)(C)/C=C/CN1C[C@H](O)[C@@H](O)[C@H](O)[C@H]1CO [Example 40]" result_comparator== readout_value=20
molecule="CC(C)(C)[Si](C)(C)/C=C\\CN1C[C@H](O)[C@@H](O)[C@H](O)[C@H]1CO [Example 59]" result_comparator== readout_value=190
molecule="C[Si](C)(C)/C=C\\CN1C[C@H](O)[C@@H](O)[C@H](O)[C@H]1CO [Example 54]" result_comparator== readout_value=310
molecule="C[Si](C)(C)c1ccc(CN2C[C@H](O)[C@@H](O)[C@H](O)[C@H]2CO)cc1 [Example 46]" result_comparator== readout_value=10
molecule="CC[Si](C)(C)CN1C[C@H](O)[C@@H](O)[C@H](O)[C@H]1CO [Example 60]" result_comparator== readout_value=18
molecule="C[Si](C)(C)CN1C[C@H](O)[C@@H](O)[C@H](O)[C@H]1CO [Example 32]" result_comparator== readout_value=540
molecule="CC(C)(C)[Si](C)(C)/C=C/CN1C[C@H](O)[C@@H](O)[C@H](O)[C@H]1CO [Example 55]" result_comparator== readout_value=45
